These data points were gathered from ChEMBL document CHEMBL1157094.

tested on: PANC-1; assay: Cytotoxicity against human PANC1 cells in nutrient-deprived condition assessed as preferential cell death after 24 hrs by WST-8 assay
observed property: PC50 (µM)
Answer format: numeric, µM implied, no suffix.

# annotated cases, reported PC50 shown
> print(dat)
                                   molecule  observed.property  value
1  CC(C)C(=O)O[C@H]1C(=O)c2c(O)cc(O)cc2O[C@@H]1c1ccccc1               PC50   19.8
2  CC(=O)OC(COC(=O)/C=C/c1ccc(O)cc1)COC(=O)/C=C/c1ccc(O)cc1               PC50   38.8
3       COc1cc(/C=C/C(=O)O)ccc1O [FERULATE]               PC50   66.6

As a next step, examine the molecule that follows.
Request: For the molecule CC(C)CC(=O)O[C@H]1C(=O)c2c(O)cc(O)cc2O[C@@H]1c1ccccc1 , report PC50.
Result: 17.5
